# assayedSystem: UniProtKB P00748
# Sequence (P00748 whole entry): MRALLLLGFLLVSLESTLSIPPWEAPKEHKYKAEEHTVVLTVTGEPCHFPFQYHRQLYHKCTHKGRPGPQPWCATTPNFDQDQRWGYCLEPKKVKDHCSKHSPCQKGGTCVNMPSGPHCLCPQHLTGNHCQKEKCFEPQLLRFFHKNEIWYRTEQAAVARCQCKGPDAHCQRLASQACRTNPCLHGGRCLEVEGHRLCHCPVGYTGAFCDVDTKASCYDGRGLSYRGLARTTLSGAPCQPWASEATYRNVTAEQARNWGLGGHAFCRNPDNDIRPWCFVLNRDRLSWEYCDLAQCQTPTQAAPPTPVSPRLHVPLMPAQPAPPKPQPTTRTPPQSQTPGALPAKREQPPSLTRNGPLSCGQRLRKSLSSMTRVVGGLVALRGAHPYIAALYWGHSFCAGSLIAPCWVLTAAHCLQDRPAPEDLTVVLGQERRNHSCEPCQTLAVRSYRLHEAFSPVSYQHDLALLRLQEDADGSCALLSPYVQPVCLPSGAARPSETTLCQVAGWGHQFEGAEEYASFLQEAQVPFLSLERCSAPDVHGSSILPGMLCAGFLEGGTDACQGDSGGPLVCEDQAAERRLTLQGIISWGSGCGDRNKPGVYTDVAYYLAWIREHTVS
Peptide text beside a SMILES is read from it.
pKi reference
# log scale: pKi equals minus log10 of the concentration in mol/L

compound	recordedMeasurement
N=C(N)NCCC[C@H](NC(=O)CNC(=O)[C@H](CO)NC(=O)[C@H](CS)NC(=O)[C@@H](N)CO)C(=O)N[C@@H](CCCNC(=N)N)C(=O)N[C@@H](CS)C(=O)N1CCC[C@H]1C(=O)N1CCC[C@H]1C(=O)N[C@@H](CO)C(=O)N[C@@H](Cc1ccc(O)cc1)C(=O)N[C@@H](CS)C(=O)N[C@@H](CCCCN)C(=O)O [SCSGRRCPPSYCK] (H-SCSGRRCPPSYCK-OH)	5.11

Let's switch to this compound now.
**Q:** Please look up its pKi: C[C@H](NC(=O)[C@@H]1CCCN1C(=O)[C@@H]1CCCN1C(=O)[C@H](CS)NC(=O)[C@@H]1CCCN1C(=O)[C@H](CCCN=C(N)N)NC(=O)CNC(=O)CNC(=O)[C@H](CS)NC(=O)[C@@H](N)CO)C(=O)N[C@@H](Cc1ccc(O)cc1)C(=O)N[C@@H](CS)C(=O)N[C@@H](CCCCN)C(=O)O (H-SCGGRPCPPAYCK-OH)
**A:** 5.51

###

// each record: one item and its pKi for Coagulation factor XII (Homo sapiens)
Numbered stars: 1 amine (or outer) side, 2 acyl side, 3 side chain; on linkers, the order of the positions; unused ones are H or OH. Bridge positions count the residues as written; N and C are the ends. Peptide text beside a SMILES is read from it. TBMB = c1c(C[*:1])cc(C[*:3])cc1C[*:2]
# log scale: pKi equals minus log10 of the concentration in mol/L

compound	assayedSystem	pKi
C[C@@H]1NC(=O)[C@@H]2CCCN2C(=O)[C@@H]2CCCN2C(=O)[C@@H]2CSCc3cc(cc(c3)CSC[C@@H](C(=O)NCC(=O)O)NC(=O)[C@H](Cc3ccc(O)cc3)NC1=O)CSC[C@H](NC(=O)CN)C(=O)NCC(=O)NCC(=O)N[C@@H](CCCN=C(N)N)C(=O)N1CCC[C@H]1C(=O)N2 (H-GCGGRPCPPAYCG-OH; linker 2-7-12 via TBMB)	Coagulation factor XII (Homo sapiens)	5.92

Let's switch to this compound now.
**Q:** Please look up its pKi: CSCC[C@H](NC(=O)[C@@H]1CCCN1C(=O)[C@H](CS)NC(=O)[C@@H]1CCCN1C(=O)[C@H](CCCN=C(N)N)NC(=O)CNC(=O)[C@H](CC(C)C)NC(=O)[C@H](CS)NC(=O)CN)C(=O)N[C@@H](C)C(=O)N[C@@H](Cc1ccc(O)cc1)C(=O)N[C@@H](CS)C(=O)N[C@@H](CO)C(=O)O (H-GCLGRPCPMAYCS-OH)
**A:** 5.30
